STUDY TARGET: Human recombinant MMP-2 (Homo sapiens)
Construct: made in house; host or cells: MMP-2-transfected p2AHT2 cells
Sequence (P08253 110-660): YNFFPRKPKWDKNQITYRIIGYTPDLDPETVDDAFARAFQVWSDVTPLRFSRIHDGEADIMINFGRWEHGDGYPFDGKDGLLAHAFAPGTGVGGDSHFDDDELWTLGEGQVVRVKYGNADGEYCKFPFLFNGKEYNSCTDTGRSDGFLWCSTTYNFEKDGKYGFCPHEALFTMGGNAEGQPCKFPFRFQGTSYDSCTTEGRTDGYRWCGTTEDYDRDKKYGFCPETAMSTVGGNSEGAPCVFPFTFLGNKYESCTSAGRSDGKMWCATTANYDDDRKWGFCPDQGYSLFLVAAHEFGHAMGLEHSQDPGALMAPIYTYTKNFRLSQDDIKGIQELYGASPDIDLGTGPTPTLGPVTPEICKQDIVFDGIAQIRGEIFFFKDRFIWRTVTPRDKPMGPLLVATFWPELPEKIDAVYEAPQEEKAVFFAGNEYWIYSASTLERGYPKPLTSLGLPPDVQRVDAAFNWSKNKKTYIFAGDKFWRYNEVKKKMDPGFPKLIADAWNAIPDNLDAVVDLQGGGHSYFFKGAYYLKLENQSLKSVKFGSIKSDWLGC
ASSAY INFO: In vitro MMP inhibition, IC50 determination (fluorogenic substrate I)
Type: biochemical
CONDITION NOTES: value outside parentheses (Ki in parenthesis)
So I've got a bunch of molecules here, and I need their IC50 values.
Give bare numbers, in nM.

Some solved entries appear below for comparison.
SMILES STR	STUDY TARGET	IC50 (nM)
CN(C)c1ccc(C(=O)NCCCOc2ccc(S(=O)(=O)C3(C(=O)NO)CCOCC3)cc2)cc1	Human recombinant MMP-2 (Homo sapiens)	500
COc1ccc2c(c1)CCCN2CCCCCOc1ccc(S(=O)(=O)C2(C(=O)NO)CCOCC2)cc1	Human recombinant MMP-2 (Homo sapiens)	17
O=C1c2cc3ccccc3cc2C(=O)N1CCCOc1ccc(S(=O)(=O)C2(C(=O)NO)CCOCC2)cc1	Human recombinant MMP-2 (Homo sapiens)	7700
CC(C)(CCc1ccccc1)Oc1ccc(S(=O)(=O)C2(C(=O)NO)CCOCC2)cc1	Human recombinant MMP-2 (Homo sapiens)	2500
CC(=O)N1CC[C@@H](Oc2ccc(S(=O)(=O)C3(C(=O)NO)CCOCC3)cc2)C1	Human recombinant MMP-2 (Homo sapiens)	251

Would you mind listing IC50 for each of the following molecules?
1. O=C(NO)C1(S(=O)(=O)c2ccc(OCCCO)cc2)CCOCC1
2. C[C@H](COc1ccc(S(=O)(=O)C2(C(=O)NO)CCOCC2)cc1)NC(=O)c1ccc(N(C)C)cc1
3. O=C(NCCCOc1ccc(S(=O)(=O)C2(C(=O)NO)CCOCC2)cc1)c1ccc2ccccc2c1

Result:
3.7
3200
347

---

STUDY TARGET: Human recombinant MMP-9 (Homo sapiens)
Construct: made in house; host or cells: MMP-9-transfected HT1080 cells (spent media)
ASSAY INFO: In vitro MMP inhibition, IC50 determination (fluorogenic substrate I)
Format: biochemical
CONDITION NOTES: value outside parenthesis
Binarize IC50 at 300 nM; below is met, at or above is not met.

SMILES STR	CAT
O=C(NO)C1(S(=O)(=O)c2ccc(OCCc3cccc(-c4ccccc4)c3)cc2)CCOCC1	not met
O=C(NO)C1(S(=O)(=O)c2ccc(OCCCSc3nc4ccccc4s3)cc2)CCOCC1	met
O=C1CN(c2ccccc2Cl)C(=O)N1CCCOc1ccc(S(=O)(=O)C2(C(=O)NO)CCOCC2)cc1	not met
CC(C)c1ccc(-c2nnc(CCCOc3ccc(S(=O)(=O)C4(C(=O)NO)CCOCC4)cc3)o2)cc1	not met
O=C(NO)C1(S(=O)(=O)c2ccc(OCCCc3nnc(-c4ccccc4Cl)o3)cc2)CCOCC1	not met

Lab note: next compound to report on.
Task: For CC(C)[C@H]1C(=O)N(CCCOc2ccc(S(=O)(=O)C3(C(=O)NO)CCOCC3)cc2)C(=O)N1c1ccccc1 , is the recorded IC50 below the cut-off of 300 nM?
Result: not met

---

STUDY TARGET: Human recombinant MMP-9 (Homo sapiens, UniProt P14780)
Construct: made in house; host or cells: MMP-9-transfected HT1080 cells (spent media)
Sequence (P14780 107-707 limits assumed): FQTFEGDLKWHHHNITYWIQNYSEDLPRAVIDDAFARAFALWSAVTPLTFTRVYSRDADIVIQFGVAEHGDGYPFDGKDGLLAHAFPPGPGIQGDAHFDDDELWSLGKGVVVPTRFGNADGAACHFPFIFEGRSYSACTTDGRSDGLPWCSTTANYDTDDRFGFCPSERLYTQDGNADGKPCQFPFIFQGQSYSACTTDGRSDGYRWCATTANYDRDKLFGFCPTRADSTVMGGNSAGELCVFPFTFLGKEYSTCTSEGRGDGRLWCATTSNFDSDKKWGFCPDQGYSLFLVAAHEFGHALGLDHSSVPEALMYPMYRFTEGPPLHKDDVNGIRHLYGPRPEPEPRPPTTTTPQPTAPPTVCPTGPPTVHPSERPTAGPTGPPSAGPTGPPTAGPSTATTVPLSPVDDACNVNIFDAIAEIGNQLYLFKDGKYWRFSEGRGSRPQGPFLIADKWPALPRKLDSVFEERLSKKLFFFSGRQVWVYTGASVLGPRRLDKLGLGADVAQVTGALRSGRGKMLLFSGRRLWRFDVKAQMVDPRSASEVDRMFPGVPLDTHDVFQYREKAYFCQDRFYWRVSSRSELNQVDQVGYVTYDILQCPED
ASSAY INFO: In vitro MMP inhibition, IC50 determination (fluorogenic substrate I)
Type: biochemical
CONDITION NOTES: value outside parenthesis
Assign classes using reported IC50 values and the ranges c1: < 200 nM; c2: ≥ 200 nM and < 1000 nM; c3: ≥ 1000 nM, please.

Examples from the recorded data:
COMPOUND	CAT
O=C(NO)C1(S(=O)(=O)c2ccc(OCCCc3cccc(-c4ccccc4F)c3)cc2)CCOCC1 [Example 163]	c3
COCCN1CCC(C(=O)NO)(S(=O)(=O)c2ccc(OCCCCC(=O)c3ccc(N(C)C)cc3)cc2)CC1 [Example 248]	c1
O=C(NO)C1(S(=O)(=O)c2ccc(OCCCc3nc(-c4ccc(F)cc4)no3)cc2)CCOCC1 [Example 240]	c3
O=C(NO)C1(S(=O)(=O)c2ccc(OCCc3cccc(-c4ccc(F)cc4)c3)cc2)CCOCC1 [Example 123]	c3
CC(C)Oc1ccc(-c2nnc(CCCOc3ccc(S(=O)(=O)C4(C(=O)NO)CCOCC4)cc3)o2)cc1 [Example 209]	c2
CN(C)Cc1ccc(C(=O)CCCCOc2ccc(S(=O)(=O)C3(C(=O)NO)CCN(C4CC4)CC3)cc2)cc1 [Example 187]	c1

Task: Classify this compound: COCCN1CCC(C(=O)NO)(S(=O)(=O)c2ccc(OCCCCC(=O)c3ccc(OC)cc3)cc2)CC1 [Example 245]
Result: c1

Task: Classify this compound: CCOc1ccccc1-c1noc(CCCOc2ccc(S(=O)(=O)C3(C(=O)NO)CCOCC3)cc2)n1 [Example 264]
Result: c2

Task: Classify this compound: O=C(NO)C1(S(=O)(=O)c2ccc(OCCCc3nnc(-c4ccc(-c5ccccc5)cc4)o3)cc2)CCOCC1 [Example 257]
Result: c3

Task: Classify this compound: O=C1CN(c2ccccc2)C(=O)N1CCCOc1ccc(S(=O)(=O)C2(C(=O)NO)CCOCC2)cc1 [Example 263]
Result: c3

---

STUDY TARGET: Human recombinant MMP-1 (Homo sapiens)
Construct: made in house; host or cells: MMP-1-transfected HT-1080 cells (spent media)
Sequence (P03956 100-469): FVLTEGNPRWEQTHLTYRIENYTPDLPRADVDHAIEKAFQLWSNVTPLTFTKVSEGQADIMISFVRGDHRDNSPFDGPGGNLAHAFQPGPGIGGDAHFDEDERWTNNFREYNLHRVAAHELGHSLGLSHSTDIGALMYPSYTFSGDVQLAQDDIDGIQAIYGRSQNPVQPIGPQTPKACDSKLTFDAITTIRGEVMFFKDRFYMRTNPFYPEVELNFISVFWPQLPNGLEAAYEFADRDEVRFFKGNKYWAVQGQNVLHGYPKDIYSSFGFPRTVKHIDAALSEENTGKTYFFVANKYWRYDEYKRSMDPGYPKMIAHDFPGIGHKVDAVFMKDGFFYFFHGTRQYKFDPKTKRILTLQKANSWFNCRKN
ASSAY INFO: In vitro MMP inhibition, Ki determination (fluorogenic substrate II)
Type: biochemical
CONDITION NOTES: value in parenthesis
READOUT KIND: Ki

Some solved entries appear below for comparison.
SMILES STR	STUDY TARGET	VALUE REPORTED
COCCN1CCC(C(=O)NO)(S(=O)(=O)c2ccc(OCCCc3nc(-c4ccc(Br)cc4C)no3)cc2)CC1	Human recombinant MMP-1 (Homo sapiens)	> 10 µM
O=C(NO)C1(S(=O)(=O)c2ccc(OCCc3cccc(-c4cc(Cl)cc(Cl)c4)c3)cc2)CCOCC1	Human recombinant MMP-1 (Homo sapiens)	> 10 µM
O=C(NO)C1(S(=O)(=O)c2ccc(OCCCc3cccc(-c4ccc(Cl)cc4Cl)c3)cc2)CCOCC1	Human recombinant MMP-1 (Homo sapiens)	> 10 µM
Cc1cc(-c2cccc(CCCOc3ccc(S(=O)(=O)C4(C(=O)NO)CCOCC4)cc3)c2)ccc1F	Human recombinant MMP-1 (Homo sapiens)	> 10 µM
O=C(NO)C1(S(=O)(=O)c2ccc(OCCCc3nc(C4CCCCC4)no3)cc2)CCN(C2CC2)CC1	Human recombinant MMP-1 (Homo sapiens)	> 10 µM
COc1ccc(-c2cccc(CCOc3ccc(S(=O)(=O)C4(C(=O)NO)CCOCC4)cc3)c2)cc1C	Human recombinant MMP-1 (Homo sapiens)	> 10 µM

Next:
Recorded result, Cc1cc(-c2cccc(CCOc3ccc(S(=O)(=O)C4(C(=O)NO)CCOCC4)cc3)c2)ccc1Cl , Ki: > 10 µM

---

STUDY TARGET: Human recombinant MMP-9 (Homo sapiens)
Construct: made in house; host or cells: MMP-9-transfected HT1080 cells (spent media)
ASSAY INFO: In vitro MMP inhibition, IC50 determination (fluorogenic substrate I)
Type: biochemical
CONDITION NOTES: value outside parentheses (Ki in parenthesis)
Description: Several hydroxamates and salts thereof were analyzed in in vitro assays to determine their ability to inhibit the MMP cleavage of peptide substrates. Inhibition (Ki) and IC50 constants were calculated from the assayed hydroxamate-MMP interactions. […] The assays from which the IC50 determinations were made were performed as follows. […] The assayed hydroxamate samples were, incubated in Microfluorrm White Plates (Dynatech, Chantilly, VA) and analyzed on a Perkin Elmer L550 plate reader (Norwalk, Conn.). […]
READOUT KIND: pIC50
One number for each entry, as −log10 of the molar value.

Some solved entries appear below for comparison.
SMILES STR	pIC50
CC(C)(C)C1CCN(S(=O)(=O)CCCOc2ccc(S(=O)(=O)C3(C(=O)NO)CCOCC3)cc2)CC1	5.70
C[C@H]1[C@@H](c2ccccc2)OC(=O)N1CCCOc1ccc(S(=O)(=O)C2(C(=O)NO)CCOCC2)cc1	5.81

Would you mind listing pIC50 for each of the following compounds?
1. O=C(NO)C1(S(=O)(=O)c2ccc(OCCSc3nc4c(Cl)cc(Cl)cc4o3)cc2)CCOCC1
2. Cc1oc(CCCOc2ccc(S(=O)(=O)C3(C(=O)NO)CCOCC3)cc2)nc1-c1ccccc1

Result:
1. 6.80
2. 6.61

---

STUDY TARGET: Human recombinant MMP-9 (Homo sapiens)
Construct: made in house; host or cells: MMP-9-transfected HT1080 cells (spent media)
ASSAY INFO: In vitro MMP inhibition, IC50 determination (fluorogenic substrate I)
Format: biochemical
CONDITION NOTES: value outside parentheses (Ki in parenthesis)
So I've got a bunch of compounds here, and I need their IC50 values.
One number for each entry, in µM.

COMPOUND	IC50 / µM
CC(C)(COc1ccc(S(=O)(=O)C2(C(=O)NO)CCOCC2)cc1)CS(=O)(=O)Cc1ccccc1	3.8
COC(=O)c1ccc(C(=O)NCCCOc2ccc(S(=O)(=O)C3(C(=O)NO)CCOCC3)cc2)cc1	9
O=C(CCCCOc1ccc(S(=O)(=O)C2(C(=O)NO)CCOCC2)cc1)c1cccc(-c2ccccc2)c1	4.04
Cc1cc(C(=O)NCCCOc2ccc(S(=O)(=O)C3(C(=O)NO)CCOCC3)cc2)no1	0.0353
O=C(CCCOc1ccc(S(=O)(=O)C2(C(=O)NO)CCOCC2)cc1)c1ccc(-c2ccccc2)cc1	1.65
O=C(CCCOc1ccc(S(=O)(=O)C2(C(=O)NO)CCOCC2)cc1)Nc1ccccc1O	0.271
COc1ccc(C(O)CCCCOc2ccc(S(=O)(=O)C3(C(=O)NO)CCOCC3)cc2)cc1 (centres unmarked)	0.169

Next:
Recorded result, O=C(NO)C1(S(=O)(=O)c2ccc(OCCCS(=O)(=O)N3CCc4ccccc4C3)cc2)CCOCC1 , IC50: 0.132

From: patent US20040024024A1
